- Tested on: KRAS-mutant PDC multicell tumor spheroid viability
- METHOD_DESCRIPTION: Anticancer human tumor 521955-158-R2-J5-PDC patient-derived pancreatic carcinoma cell line growth inhibition [KRAS2]
- TEST_CONTEXT: second compound 3.16 µM; first compound 0.001 µM; hits give low values
Field 'label' (enum: true / false). Set to true when viability, T/C is strictly under 10%; else false.

>  <COMPOUND>
CC(=O)Nc1cccc(-n2c(=O)n(C3CC3)c(=O)c3c(Nc4ccc(I)cc4F)n(C)c(=O)c(C)c32)c1 + C=CC(=O)N1CCN(c2nc(OCC3CCCN3C)nc3c2CCN(c2cccc4cccc(C)c24)C3)CC1CC#N

>  <CATEGORY>
true

$$$$
>  <COMPOUND>
CC(C)n1nc(-c2ccc3oc(N)nc3c2)c2c(N)ncnc21 + COc1cc2nc(C)nc(NC(C)c3cc(N)cc(C(F)(F)F)c3)c2cc1OC1CCOC1

>  <CATEGORY>
false

$$$$
>  <COMPOUND>
CC(C)n1nc(-c2ccc3oc(N)nc3c2)c2c(N)ncnc21 + CC1OCC2(CCN(c3cnc(Sc4ccnc(N)c4Cl)c(N)n3)CC2)C1N

>  <CATEGORY>
false

$$$$
>  <COMPOUND>
Cn1ncnc1[C@H]1c2n[nH]c(=O)c3cc(F)cc(c23)N[C@@H]1c1ccc(F)cc1 + C=CC(=O)N1CCN(c2nc(OCC3CCCN3C)nc3c2CCN(c2cccc4cccc(C)c24)C3)CC1CC#N

>  <CATEGORY>
false

$$$$
>  <COMPOUND>
CC(C)n1nc(-c2ccc3oc(N)nc3c2)c2c(N)ncnc21 + C=CC(=O)N1CCN(c2nc(=O)n(-c3c(C)ccnc3C(C)C)c3nc(-c4c(O)cccc4F)c(F)cc23)C(C)C1

>  <CATEGORY>
false

$$$$

----------
- System: KRAS-mutant PDC multicell tumor spheroid viability
- METHOD_DESCRIPTION: Anticancer human tumor 521955-158-R2-J5-PDC cell line growth inhibition [KRAS2];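 also: viability read after seven days of drug exposure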
- TEST_CONTEXT: second compound 3.16 µM; first compound 1 µM; hits give low values
MEASUREMENT_TYPE: viability, T/C

>  <COMPOUND>
CC(C)NCC(C(=O)N1CCN(c2ncnc3c2C(C)CC3O)CC1)c1ccc(Cl)cc1 (stereo not given) + C=CC(=O)N1CCN(c2nc(OCC3CCCN3C)nc3c2CCN(c2cccc4cccc(C)c24)C3)CC1CC#N

>  <TARGET_OR_TEST_SYSTEM>
KRAS-mutant PDC multicell tumor spheroid viability

>  <MEASURED_VALUE>
11.6%

$$$$
>  <COMPOUND>
CC1(C)CCC(CN2CCN(c3ccc(C(=O)NS(=O)(=O)c4ccc(NCC5CCOCC5)c([N+](=O)[O-])c4)c(Oc4cnc5[nH]ccc5c4)c3)CC2)=C(c2ccc(Cl)cc2)C1 + CNCc1ccccc1-c1csc(C(C)Nc2nc(C)nc3cc(OC)c(OC)cc23)c1

>  <TARGET_OR_TEST_SYSTEM>
KRAS-mutant PDC multicell tumor spheroid viability

>  <MEASURED_VALUE>
1.04%

$$$$
>  <COMPOUND>
CCN1CCN(Cc2ccc(Nc3ncc(F)c(-c4cc(F)c5nc(C)n(C(C)C)c5c4)n3)nc2)CC1 + C=CC(=O)N1CCN(c2nc(OCC3CCCN3C)nc3c2CCN(c2cccc4cccc(C)c24)C3)CC1CC#N

>  <TARGET_OR_TEST_SYSTEM>
KRAS-mutant PDC multicell tumor spheroid viability

>  <MEASURED_VALUE>
0.34%

$$$$
>  <COMPOUND>
CCN1CCN(Cc2ccc(Nc3ncc(F)c(-c4cc(F)c5nc(C)n(C(C)C)c5c4)n3)nc2)CC1 + CNCc1ccccc1-c1csc(C(C)Nc2nc(C)nc3cc(OC)c(OC)cc23)c1

>  <TARGET_OR_TEST_SYSTEM>
KRAS-mutant PDC multicell tumor spheroid viability

>  <MEASURED_VALUE>
0.6%

$$$$
>  <COMPOUND>
COC(=O)c1ccc2c(C(=Nc3ccc(N(C)C(=O)CN4CCN(C)CC4)cc3)c3ccccc3)c(O)[nH]c2c1 + C=CC(=O)N1CCN(c2nc(OCC3CCCN3C)nc3c2CCN(c2cccc4cccc(C)c24)C3)CC1CC#N

>  <TARGET_OR_TEST_SYSTEM>
KRAS-mutant PDC multicell tumor spheroid viability

>  <MEASURED_VALUE>
0.34%

$$$$
>  <COMPOUND>
CC(=O)OC12COC1CC(O)C1(C)C(=O)C(O)C3=C(C)C(OC(=O)C(O)C(NC(=O)OC(C)(C)C)c4ccccc4)CC(O)(C(OC(=O)c4ccccc4)C21)C3(C)C (stereo not given) + C=CC(=O)N1CCN(c2nc(=O)n(-c3c(C)ccnc3C(C)C)c3nc(-c4c(O)cccc4F)c(F)cc23)C(C)C1

>  <TARGET_OR_TEST_SYSTEM>
KRAS-mutant PDC multicell tumor spheroid viability

>  <MEASURED_VALUE>
11.8%

$$$$
>  <COMPOUND>
CC1COCCN1c1cc(-c2ccnn2C)c2ccnc(-c3ccn[nH]3)c2n1 (stereo not given) + C=CC(=O)N1CCN(c2nc(OCC3CCCN3C)nc3c2CCN(c2cccc4cccc(C)c24)C3)CC1CC#N

>  <TARGET_OR_TEST_SYSTEM>
KRAS-mutant PDC multicell tumor spheroid viability

>  <MEASURED_VALUE>
11%

$$$$
>  <COMPOUND>
CCNC(=O)CC1N=C(c2ccc(Cl)cc2)c2cc(OC)ccc2-n2c(C)nnc21 (stereo not given) + C=CC(=O)N1CCN(c2nc(=O)n(-c3c(C)ccnc3C(C)C)c3nc(-c4c(O)cccc4F)c(F)cc23)C(C)C1

>  <TARGET_OR_TEST_SYSTEM>
KRAS-mutant PDC multicell tumor spheroid viability

>  <MEASURED_VALUE>
45.4%

$$$$
>  <COMPOUND>
CC1OCC2(CCN(c3cnc(Sc4ccnc(N)c4Cl)c(N)n3)CC2)C1N (stereo not given) + COc1cc2nc(C)nc(NC(C)c3cc(N)cc(C(F)(F)F)c3)c2cc1OC1CCOC1

>  <TARGET_OR_TEST_SYSTEM>
KRAS-mutant PDC multicell tumor spheroid viability

>  <MEASURED_VALUE>
83.8%

$$$$
>  <COMPOUND>
O=C(c1cc(Cc2n[nH]c(=O)c3ccccc23)ccc1F)N1CCN(C(=O)C2CC2)CC1 + COc1cc2nc(C)nc(NC(C)c3cc(N)cc(C(F)(F)F)c3)c2cc1OC1CCOC1

>  <TARGET_OR_TEST_SYSTEM>
KRAS-mutant PDC multicell tumor spheroid viability

>  <MEASURED_VALUE>
83.9%

$$$$
>  <COMPOUND>
CC1OCC2(CCN(c3cnc(Sc4ccnc(N)c4Cl)c(N)n3)CC2)C1N (stereo not given) + C=CC(=O)N1CCN(c2nc(=O)n(-c3c(C)ccnc3C(C)C)c3nc(-c4c(O)cccc4F)c(F)cc23)C(C)C1

>  <TARGET_OR_TEST_SYSTEM>
KRAS-mutant PDC multicell tumor spheroid viability

>  <MEASURED_VALUE>
79.1%

$$$$
>  <COMPOUND>
CC1OCC2(CCN(c3cnc(Sc4ccnc(N)c4Cl)c(N)n3)CC2)C1N (stereo not given) + C=CC(=O)N1CCN(c2nc(OCC3CCCN3C)nc3c2CCN(c2cccc4cccc(C)c24)C3)CC1CC#N

>  <TARGET_OR_TEST_SYSTEM>
KRAS-mutant PDC multicell tumor spheroid viability

>  <MEASURED_VALUE>
13%

$$$$
>  <COMPOUND>
CC(=O)OC12COC1CC(O)C1(C)C(=O)C(O)C3=C(C)C(OC(=O)C(O)C(NC(=O)OC(C)(C)C)c4ccccc4)CC(O)(C(OC(=O)c4ccccc4)C21)C3(C)C (stereo not given) + COc1cc2nc(C)nc(NC(C)c3cc(N)cc(C(F)(F)F)c3)c2cc1OC1CCOC1

>  <TARGET_OR_TEST_SYSTEM>
KRAS-mutant PDC multicell tumor spheroid viability

>  <MEASURED_VALUE>
17.1%

$$$$
>  <COMPOUND>
CC(C)NCC(C(=O)N1CCN(c2ncnc3c2C(C)CC3O)CC1)c1ccc(Cl)cc1 (stereo not given) + CC1OCC2(CCN(c3cnc(Sc4ccnc(N)c4Cl)c(N)n3)CC2)C1N

>  <TARGET_OR_TEST_SYSTEM>
KRAS-mutant PDC multicell tumor spheroid viability

>  <MEASURED_VALUE>
41.5%

$$$$
>  <COMPOUND>
CC1OCC2(CCN(c3cnc(Sc4ccnc(N)c4Cl)c(N)n3)CC2)C1N (stereo not given) + CNCc1ccccc1-c1csc(C(C)Nc2nc(C)nc3cc(OC)c(OC)cc23)c1

>  <TARGET_OR_TEST_SYSTEM>
KRAS-mutant PDC multicell tumor spheroid viability

>  <MEASURED_VALUE>
0.2%

$$$$
>  <COMPOUND>
Cn1nccc1Nc1nccc(-c2cc3c(s2)C(C)(C)N(CCN2CCOCC2)C3=O)n1 + C=CC(=O)N1CCN(c2nc(=O)n(-c3c(C)ccnc3C(C)C)c3nc(-c4c(O)cccc4F)c(F)cc23)C(C)C1

>  <TARGET_OR_TEST_SYSTEM>
KRAS-mutant PDC multicell tumor spheroid viability

>  <MEASURED_VALUE>
64.2%

$$$$
>  <COMPOUND>
COc1cc2nccc(Oc3ccc(NC(=O)C4(C(=O)Nc5ccc(F)cc5)CC4)cc3)c2cc1OC + CNCc1ccccc1-c1csc(C(C)Nc2nc(C)nc3cc(OC)c(OC)cc23)c1

>  <TARGET_OR_TEST_SYSTEM>
KRAS-mutant PDC multicell tumor spheroid viability

>  <MEASURED_VALUE>
0.52%

$$$$
>  <COMPOUND>
CC(C)NCC(C(=O)N1CCN(c2ncnc3c2C(C)CC3O)CC1)c1ccc(Cl)cc1 (stereo not given) + COc1cc2nc(C)nc(NC(C)c3cc(N)cc(C(F)(F)F)c3)c2cc1OC1CCOC1

>  <TARGET_OR_TEST_SYSTEM>
KRAS-mutant PDC multicell tumor spheroid viability

>  <MEASURED_VALUE>
56.8%

$$$$
>  <COMPOUND>
COC(=O)c1ccc2c(C(=Nc3ccc(N(C)C(=O)CN4CCN(C)CC4)cc3)c3ccccc3)c(O)[nH]c2c1 + CNCc1ccccc1-c1csc(C(C)Nc2nc(C)nc3cc(OC)c(OC)cc23)c1

>  <TARGET_OR_TEST_SYSTEM>
KRAS-mutant PDC multicell tumor spheroid viability

>  <MEASURED_VALUE>
0.15%

$$$$
>  <COMPOUND>
CCNC(=O)CC1N=C(c2ccc(Cl)cc2)c2cc(OC)ccc2-n2c(C)nnc21 (stereo not given) + CNCc1ccccc1-c1csc(C(C)Nc2nc(C)nc3cc(OC)c(OC)cc23)c1

>  <TARGET_OR_TEST_SYSTEM>
KRAS-mutant PDC multicell tumor spheroid viability

>  <MEASURED_VALUE>
0.08%

$$$$
